targetOfAssay: T1, human GREM1 (hGREM1-His; SEQ ID NO: 595) (human, UniProt O60565 25-184)
T1 construct: also called biotin-hGREM1-His; recombinant human GREM1 protein
T1 sequence: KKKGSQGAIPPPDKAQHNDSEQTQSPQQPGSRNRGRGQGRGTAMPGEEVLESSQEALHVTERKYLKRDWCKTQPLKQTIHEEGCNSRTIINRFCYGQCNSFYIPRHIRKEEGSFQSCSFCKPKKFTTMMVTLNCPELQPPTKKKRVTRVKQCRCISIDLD
procedureText: SPR, Biacore T200, 25 C, mAb captured, hGREM1-His injected;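 also: Heparin-supplemented HBS-EP+ used as running buffer, association and dissociation phases followed, Kd computed as koff divided by kon and half-life derived from koff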
experimentalReadout: kon (M⁻¹ s⁻¹)
Please respond with the number in M⁻¹ s⁻¹ and leave the unit unwritten.

Past entries and their recorded results:
# binder, scaleUnit, kon
measured = [
    ("H3M2788N (antibody, V domains shown, H3M prefix marks the Fc (chimeric, mouse constant domains)) VH: QVQLVESGGGVVQPGRSLRLSCAASGFTFSSHGMHWVRQAPGKGLEWVAVIWYDGSNKYHADSVKGRFTIYRDNSKNTLDLQMNSLRVEDTAMYYCAREDSNNEDLDYWGQGTLVTVSS VL: DIQMTQSPSSLSASVGDRVTITCRASQGIRNDLGWFQQKPGKAPKRLIYVASNLQSGVPSRFSGSGSGTEFTLTISSLQPEDFATYYCLQHSNYPPWTFGQGTKVEIK", "M⁻¹ s⁻¹", 80000),
    ("H2bM2782N (antibody, mouse IgG2, V domains shown, H2M prefix = mouse IgG2 Fc (here H2bM); also called H2M2782N) VH: EVQLVESGGGLVQPGGSLRLSCAASGFTFSSYSMNWVRQAPGKGLEWVSSISSSSNYINYADSIKGRFTISRDNAKNSLYLQMNSLRAEDTAVYYCARVNWDYPFDCWGRGTLVTVSS VL: DIQMTQSPSSLSASVGDRVTITCRASQDIRHYLVWYQQKPGKVPKLLIYAASTLQSGVPSRFSGSGSGTDFILTISSLQPEDVATYYCQKYNSAPFTFGPGTKVDIK", "M⁻¹ s⁻¹", 123000),
]

For the next question, use this binder.
Query: Consider the binder H4H6251P (antibody, human IgG4, V domains shown, H4H prefix = human IgG4 Fc) VH: QVQLVESGGGVVQPGKSLRLSCAASGFTFSRYGMHWVRQAPGKGLEWVAVIWYDGSNKYYADSVKGRFTISRDNSKNTLYLQMNSLRADDTAMYYCARDDYGDSPGFDFWGQGTLVTVSS VL: EIVMTQSPATLSVSPGERATLSCRASQSVSSNLAWYQQKPGQAPRLLIYDASTRATGIPARFSGTGSGTEFTLTISSLQSEDFALYYCQQYDDWPPWTFGQGTKVEIK and give its measured kon.
Reply: 28200

Numbers sourced from patent US20200157194A1.
